test system: recombinant human MAO-A (monoamine oxidase-A) (Homo sapiens, UniProt P21397)
Construct: purchased Sigma-Aldrich
Sequence (P21397 whole entry): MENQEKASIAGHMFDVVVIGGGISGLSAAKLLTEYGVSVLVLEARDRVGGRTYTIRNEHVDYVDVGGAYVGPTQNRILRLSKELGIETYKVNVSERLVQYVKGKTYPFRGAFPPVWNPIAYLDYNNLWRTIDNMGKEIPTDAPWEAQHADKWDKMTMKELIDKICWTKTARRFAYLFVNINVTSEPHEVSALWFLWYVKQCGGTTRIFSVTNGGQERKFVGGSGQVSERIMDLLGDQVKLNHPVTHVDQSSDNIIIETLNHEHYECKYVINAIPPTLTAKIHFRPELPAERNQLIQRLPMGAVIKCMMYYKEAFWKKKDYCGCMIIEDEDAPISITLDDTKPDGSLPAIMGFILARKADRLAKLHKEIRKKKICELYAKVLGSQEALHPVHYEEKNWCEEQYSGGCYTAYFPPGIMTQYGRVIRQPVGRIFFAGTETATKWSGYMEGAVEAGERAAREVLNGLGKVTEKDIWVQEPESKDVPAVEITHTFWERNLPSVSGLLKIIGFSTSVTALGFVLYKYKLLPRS
experimental details: Activity on recombinant human MAO-A, Amplex Red method, 0.5 mM tyramine substrate
Format: biochemical
settings: 0.5 mM tyramine, read-out: Inhibitory Activity (IC50, nM) MAO-A
Where a name gives a salt, the structure may show the parent alone.
# IC50 listing for each entry below

Known IC50 results, listed for orientation:
{"columns": ["compound", "IC50"],
 "data": [
  ["CS(=O)(=O)c1ccc(-c2cccc(-n3cnn(C/C(=C/F)CN)c3=O)c2)cc1 [Example 54, hydrochloride]", "> 100000 nM"],
  ["NC/C(=C\\F)Cn1ncn(-c2cccc(Br)n2)c1=O", "> 100000 nM"],
  ["CC(=O)Nc1ccc(-c2cc(C)c(-n3cnn(C/C(=C/F)CN)c3=O)cn2)cc1", "> 100000 nM"],
  ["NC/C(=C\\F)Cn1ncn(-c2cc(F)c(Br)cc2F)c1=O [Example 23, hydrochloride]", "5200 nM"],
  ["NC/C(=C\\F)Cn1ncn(-c2cccc(-c3ccc4sc(N)nc4c3)c2)c1=O [Example 99, hydrochloride]", "> 100000 nM"],
  ["Cc1cc(-n2cnn(C/C(=C/F)CN)c2=O)cnc1-c1cccc(-c2nc[nH]n2)c1", "> 100000 nM"],
  ["NC/C(=C\\F)Cn1ncn(-c2cccc(-c3ccc(-c4ccc5c(c4)OCO5)cc3)c2)c1=O [Example 70, hydrochloride]", "> 100000 nM"],
  ["NC/C(=C\\F)Cn1ncn(-c2cccc(-c3ccc(C4CCOCC4)cc3)c2)c1=O [Example 73, hydrochloride]", "> 100000 nM"]
]}

The recorded IC50 for NC/C(=C\F)Cn1ncn(-c2ccc(Br)nc2)c1=O [Example 25, hydrochloride] is > 100000 nM

The recorded IC50 for NC/C(=C\F)Cn1ncn(-c2cnc(Br)cn2)c1=O is 19600 nM

The recorded IC50 for CC(C)c1nc(-c2cccc(-c3cccc(-n4cnn(C/C(=C/F)CN)c4=O)c3)c2)no1 [Example 65, hydrochloride] is > 100000 nM

The recorded IC50 for Cc1c(-c2ccc(S(C)(=O)=O)cc2)cccc1-n1cnn(C/C(=C/F)CN)c1=O is > 100000 nM

The recorded IC50 for NC/C(=C/F)Cn1ncn(-c2ccc(F)c(F)c2)c1=O is 2100 nM

The recorded IC50 for NC/C(=C/F)Cn1ncn(-c2ccc(Br)cc2F)c1=O [Example 11, hydrochloride] is 200 nM

The recorded IC50 for Cc1cc(-c2cccc(-c3nnc[nH]3)c2)cnc1-n1cnn(C/C(=C/F)CN)c1=O is 34000 nM

The recorded IC50 for NC/C(=C\F)Cn1ncn(-c2ccc(-c3ccc4nonc4c3)cc2F)c1=O [Example 46, hydrochloride] is 120 nM

The recorded IC50 for Cc1cc(-c2cccc(-n3cnn(C/C(=C/F)CN)c3=O)c2)cn(C)c1=O [Example 89, hydrochloride] is > 100000 nM

The recorded IC50 for CC(=O)Nc1ccc(-c2cccc(-n3cnn(C/C(=C/F)CN)c3=O)c2)cc1 [Example 57, hydrochloride] is 1250 nM

The recorded IC50 for Cc1cc(-c2ccc(C(=O)N3CCOCC3)cc2)cnc1-n1cnn(C/C(=C/F)CN)c1=O [Example 146, hydrochloride] is > 100000 nM

The recorded IC50 for NC/C(=C\F)Cn1ncn(-c2cccc(-c3ccc(N4CCOCC4)nc3)c2)c1=O [Example 86, hydrochloride] is > 100000 nM

The recorded IC50 for NC/C(=C\F)Cn1ncn(-c2cccc(-c3ccc4c(c3)NC(=O)CO4)c2)c1=O [Example 103, hydrochloride] is 26500 nM

The recorded IC50 for NC/C(=C\F)Cn1ncn(-c2cccc(-c3ccc(C(=O)N4CCOCC4)cc3)c2)c1=O [Example 78, hydrochloride] is > 100000 nM

Values from patent US11492335B2
